Molecular target: T1, NifA NC-DBD (DNA binding domain without Cys pair) (Gluconacetobacter diazotrophicus, UniProt A9H5T0 530-581)
T1 sequence: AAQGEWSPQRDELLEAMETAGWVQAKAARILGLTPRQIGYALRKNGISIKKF
Assay: fluorescence anisotropy; no DTT; 10 mM Tris pH 8, 60 mM NaCl, 0.2 mM MgCl2 (5 mM DTT when reducing), 900 nM probe, 0-80 µM protein, 30 min at room temperature
Details: protein: recombinant; tags: N-terminal His-tag (pET28a, NheI/BamHI) removed with thrombin; label: 5' TAMRA on forward strand; blunt
reported-property: Kd (µM)

# binder, unit-spec, value-measured
records = [
    ("nifH-UAS duplex, TAMRA-labeled (dsDNA) DNA 1: CGGTTTTGTCAGGCTTCGCACAAAGCCG DNA 2: CGGCTTTGTGCGAAGCCTGACAAAACCG", "µM", 20),
]

Where these numbers come from: paper PMC10590331
